Data provenance: paper PMC9170038

Target: MS2 coat protein, dlFG mutant (Escherichia phage MS2, UniProt P03612, del68-81insG)
Experiment: 4 mM Mg2+; no ligand; RNA-MaP array; 100 mM Tris-HCl pH 7.5, 80 mM KCl, 4 mM MgCl2, 0.1 mg/mL BSA, 1 mM DTT, 0.01 mg/mL yeast tRNA, 0.01% Tween-20; protein 1.5 nM to 3 uM; 37 C (Table S3)
Conditions: chain copies: 2; label: tethered by stalled RNA polymerase
Sorting guide: entries reporting Kd beneath 20 nM go in the TRUE pile, the rest go in the FALSE pile.

binder	class
Eterna 7707528 (Exclusion - Tryptophan A) (ssRNA) RNA: GGGAUGUAGUGAUGUUAUAUUGGAUGUAGACGAGGACCGGUACGGCCGCCACUCGUGAUGGCUGCUAGCACGUUUCGAUGUUUGC	FALSE
Eterna 7759081 (Exclusion - Theophylline A) (ssRNA) RNA: AACUGUCAAGGACAACAUUACUGAGGUGAUACCAGCAUCGAAAGAUGCCCUUGGCAGCGCCAACUUGCAGUGAUGUUGCAAGUAA	FALSE
Eterna 7662739 (Exclusion - Arginine A) (ssRNA) RNA: CGCGGGCCACAUGAGGAUCACCCAUGUGAAGGAGCGGCGAAUAAGCCAGGUAGGUCGCGCAUGAAUAAAUCAUGUAGGUGGCGAA	TRUE
Eterna 6453269 (Small Loop Same State NG 3) (ssRNA) RNA: CAGCGAUAGCUAAAGUAUCUAUCAGAGGAUAUUCAUGAAACAUGAGGAUCACCCAUGUGAAACUGGGAGAAGGCUGAUAGAUAG	TRUE
Eterna 6083193 (Exclusion 6) (ssRNA) RNA: CCAAGUUCGUAGGAUAUAGAUGCCUUAGGGCAAUUAGAAGGAUGGACAUGAGGAUCACCCAUGUCGGAUUCUGU	TRUE
Eterna 6033767 (Exclusion 3) (ssRNA) RNA: AGGGUAGUAGGAUAUACAUGAGGAUCACCCAUGUUUCCAUUACGUGACUGGUCCUAGUGUAGAAGGGCUAGCAC	TRUE
Eterna 7671436 (Same State - Theophylline A) (ssRNA) RNA: UGGACCUGACUCGAUAAGAGUCAAGGAGAUACCAGCCACGAAAGUGGCCCUUGGCAGCUCUGCCAGUGAUGUUGGUCAAGGUCCU	FALSE
Eterna 7732393 (Same State - FMN B) (ssRNA) RNA: AUUUUUUUGUCAGGAUAUUAGUGUGGGUUUGGUUUGUUAGUGAUGUUGAUAUUUGUUUUAUGUAUUUAAGAAGGGAUUUAGCGGU	FALSE
Eterna 1752 (Same State - Tryptophan B) (ssRNA) RNA: CUUUUACAGUCGGCCGCCACUGACAGCACUUCAAAGACAGUAUAAGGGUAGUGAUGUUACUUUAUCAGGACCGGGACUACCUAAC	FALSE
Eterna 7709739 (Same State - Tryptophan B) (ssRNA) RNA: UAUAUAGUGACGGCCGCCACUAUAUUAAUGUUUAGGUUAGAGUGAUGUUUUGAUUAAUAUUUUUAUAGGACCGGGUUAUAUGUUA	FALSE
Eterna 6430560 (Small Loop Same State NG 3) (ssRNA) RNA: ACUUAAAUACCCAAAAGUCGGGCGGAGGAUAUGGAGCUUCCACCACAUGAGGAUCACCCAUGUCUUCAGAAGGCCGCCCUUGGA	FALSE
Eterna 5978372 (Brourd's mod of Exclusion 4) (ssRNA) RNA: GCGUCUCCUGUCAGGAUAUGCACCGGCUCGCCGGCGUAGAAGGGACAUGAGGAUCACCCAUGUGGUCUACACUU	FALSE
Eterna 6443967 (Same State NG 2) (ssRNA) RNA: CUAUAGAUAUGAGGAUAUGUAUAUCCAACAUGAGGAUCACCCAUGUUGAUGAUCACGUAUGUAAAGCAGAAGGCAUAUCUAUAG	TRUE
